Would you mind telling me the reported Free-throw 3 times Accuracy of each entry?
- Format: physicochemical
- MEASUREMENT CONTEXT: 3 cycles freezing at about −20°C and thawing at room temperature, rat plasma; low QC concentration; n = 6
Answers are plain numbers, in %.

Record Free-throw 3 times Accuracy per entry; entries follow.
1. O=C(O)c1cc(O)c(O)c(O)c1 [Gallic acid, gallic acid]
2. O=c1c(O[C@@H]2O[C@H](CO)[C@@H](O)[C@H](O)[C@H]2O)c(-c2ccc(O)c(O)c2)oc2cc(O)cc(O)c12 [Isoquercitrin, isoquercitrin]
3. COc1c(O)cc2c(c1O)[C@@H]1O[C@H](CO)[C@@H](O)[C@H](O)[C@H]1OC2=O [Bergeninum, bergenin]
4. O=C(O[C@@H]1Cc2c(O)cc(O)cc2O[C@@H]1c1ccc(O)c(O)c1)c1cc(O)c(O)c(O)c1 [Epicatechin gallate, epicatechin gallate]
5. Oc1cc(O)c2c(c1)O[C@H](c1ccc(O)c(O)c1)[C@H](O)C2 [Epicatechin, epicatechin]
6. C[C@@H]1O[C@@H](Oc2c(-c3ccc(O)c(O)c3)oc3cc(O)cc(O)c3c2=O)[C@H](O)[C@H](O)[C@H]1O [Quercetin-3-rhamnoside, quercetin-3-rhamnoside]

1. 114
2. 103
3. 104
4. 98.4
5. 111
6. 90.4
